- ASSAY_TEXT: gradient 5% acetonitrile 3 min, to 50% in 2 min, to 85% in 15 min, held 3 min, 100 µL/min
- CONDITIONS_USED: column: Zorbax Extend-C18 2.1 x 50 mm; eluents: water / acetonitrile, 0.1% formic acid
OUTCOME_MEASURE: RP-LC retention time (s)
Return type: number; implicit unit s.

Name the reported RP-LC retention time value associated with the compound `O=C(NCc1ccc(Br)cc1)C1CCN(c2nnc(-c3ccccc3)o2)CC1`
884

Name the reported RP-LC retention time value associated with the compound `Fc1ccc(-c2noc(-c3ccc(N4CCCC4)nc3)n2)cc1`
1040

Name the reported RP-LC retention time value associated with the compound `CCOC(=O)c1c(C)oc(C)c(C(=O)OCC)c1=O`
780

Name the reported RP-LC retention time value associated with the compound `O=C(C1CCN(S(=O)(=O)c2ccc(-c3noc(C4CC4)n3)cc2)CC1)N1CCOCC1`
805

Name the reported RP-LC retention time value associated with the compound `CC(C)CNC(=O)CCn1c(=O)c2ccccc2n2c(=O)n(Cc3ccc(F)cc3)nc12`
870

Name the reported RP-LC retention time value associated with the compound `COc1cccc(C(=O)N2CCC3(CC2)NC(=O)c2ccccc2N3C)c1`
718

Name the reported RP-LC retention time value associated with the compound O=C(NC1CCCCC1)N1CCCCC1c1nncn1CC1CC1 (configuration not stated)
704

Name the reported RP-LC retention time value associated with the compound `CCn1ncc(NC(=O)c2ccc(OC)c(OC)c2)c(N2CCOCC2)c1=O`
722

Name the reported RP-LC retention time value associated with the compound `CCn1c(C(=O)Nc2cc(C)ccc2C)cc2sc(Cl)cc21`
1230

Name the reported RP-LC retention time value associated with the compound `N#Cc1ccc(C(=O)N2CCN(c3cc(-c4ccc(Cl)cc4)[nH]n3)CC2)cc1`
826

Name the reported RP-LC retention time value associated with the compound `O=C(CCNc1c(-c2cccc(F)c2)nc2cnccn12)NCc1ccco1`
680

Name the reported RP-LC retention time value associated with the compound CC(C)c1ccc(S(=O)(=O)Nc2cnc(N3CCNCC3)c(C(=O)NCC3CCCO3)c2)cc1 (configuration not stated)
643

Name the reported RP-LC retention time value associated with the compound COc1ccc(CNC(=O)C2c3ccccc3CC(=O)N2C)cc1 (configuration not stated)
711

Name the reported RP-LC retention time value associated with the compound `COc1cc(OC)cc(-c2nc(-c3ccc4c(c3)ncn4CCN3CCCCC3)no2)c1`
680

Name the reported RP-LC retention time value associated with the compound `CCCN1CCN(c2cc(C(=O)O)c3cc(NS(=O)(=O)c4cccc(C)c4)ccc3n2)CC1`
607

Name the reported RP-LC retention time value associated with the compound `CC(C)Cn1c(=O)c(N2CCN(C(=O)c3ccco3)CC2)nc2ccncc21`
555

Name the reported RP-LC retention time value associated with the compound Cc1ccc(NC(=O)Cn2cnc3nc(N4CCCC(C(=O)NC5CC5)C4)sc3c2=O)cc1F (configuration not stated)
703

Name the reported RP-LC retention time value associated with the compound `CC1=C(c2ccc(C)cc2)S(=O)(=O)N=C1N1CCCN(C(=O)c2cccc(C)c2)CC1`
898

Name the reported RP-LC retention time value associated with the compound COC(=O)C1=C(CN2CCN(C)CC2)NC(=O)NC1c1ccc(OC)c(OC)c1 (configuration not stated)
567

Name the reported RP-LC retention time value associated with the compound `O=C(CCCc1ccccc1)N1C[C@H]2CNC(=O)[C@]23CCCC[C@@H]13`
770

Name the reported RP-LC retention time value associated with the compound `CCC(=O)Nc1nc(-c2ccc3c(c2)N(CC)C(=O)CO3)c(C)s1`
812

Name the reported RP-LC retention time value associated with the compound `Cc1ccc(-c2nc3cccc(C)n3c2Nc2ccccc2)cc1`
741

Name the reported RP-LC retention time value associated with the compound `O=C(NCCCc1ccccc1)c1n[nH]c2c1CN(C(=O)C1CC1)CC2`
789

Name the reported RP-LC retention time value associated with the compound O=C(c1ccc(C(F)(F)F)cc1)N1CCC(n2c(-c3ccoc3)nc3cccnc32)C1 (configuration not stated)
827

Name the reported RP-LC retention time value associated with the compound `CN1CCN(c2ccc(CNC(=O)CN3CCN(Cc4ccc(F)cc4)C3=O)cc2)CC1`
599

Name the reported RP-LC retention time value associated with the compound `Cc1ncsc1CN1CCC2(CC1)c1[nH]c3ccccc3c1CCN2C`
538

Name the reported RP-LC retention time value associated with the compound `CCCNC(=O)C1CCN(Cc2cc3ccccc3n2Cc2ccccc2Cl)CC1`
736
